# ASSAY_COMMENT: Cytotoxicity against mouse macrophage cells assessed as growth inhibition incubated for 48 hrs by resazurin based assay
# Assay type: cell-based
PARAMETER: GI50 at 48 h (µg/mL)
Your answer should be a plain number; it is taken to be in µg/mL.

{"SMILES_STRUCTURE": "COc1ccc(-n2c(C)cc(CNC3CCCCC3)c2C)cc1", "GI50 at 48 h (µg/mL)": 3.9}
{"SMILES_STRUCTURE": "Cc1cc(CN[C@H]2C[C@@H]3CC[C@H]2C3)c(C)n1-c1ccc(Cl)cc1", "GI50 at 48 h (µg/mL)": 23.4}
{"SMILES_STRUCTURE": "Cc1cc(CNC2CCCCC2)c(C)n1-c1ccc(C(C)C)cc1", "GI50 at 48 h (µg/mL)": 5.8}

Now examine the next entry.
Ask | Please give the measured GI50 at 48 h for this molecule: Cc1cc(CNCC2CCCCC2)c(C)n1-c1ccc(Cl)cc1
Reply | 11.7
